- experimental system: UniProtKB P30542
- assay name: biochemical
result type: Ki
Kindly write the number and append the unit.

| compound | data value |
| --- | --- |
| Cc1[nH]c2nc(-c3ccc(F)cc3)nc(NC3CCC(O)CC3)c2c1C (centres unmarked) | 62.8 nM |

Kindly review the next compound as well.
The value of Ki measured for the compound `Cc1c(C)n(C)c2nc(-c3ccccc3)nc(N[C@H]3CC[C@H](O)CC3)c12` turned out to be 3310 nM

====

- experimental system: human A3 receptor (Homo sapiens, UniProt P0DMS8)
- Sequence (P0DMS8 whole entry): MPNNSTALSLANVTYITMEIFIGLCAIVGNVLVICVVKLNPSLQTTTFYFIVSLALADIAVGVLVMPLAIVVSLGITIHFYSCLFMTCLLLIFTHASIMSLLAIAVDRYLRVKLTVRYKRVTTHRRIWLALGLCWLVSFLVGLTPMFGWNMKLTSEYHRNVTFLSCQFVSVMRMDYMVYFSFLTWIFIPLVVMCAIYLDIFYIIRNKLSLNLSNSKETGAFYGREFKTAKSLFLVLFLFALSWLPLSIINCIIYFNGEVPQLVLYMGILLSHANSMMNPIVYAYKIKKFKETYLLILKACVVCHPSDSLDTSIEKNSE
result type: IC50 (µM)
Kindly provide the numeric value in µM only, without the unit symbol.

The value of IC50 measured for the molecule O=c1nc2[nH]c3ccccc3nc-2c(=O)[nH]1 [Alloxazine] turned out to be 8.22

====

- experimental system: human adenosine A1 receptor (Homo sapiens)
- Sequence (P30542 1-326): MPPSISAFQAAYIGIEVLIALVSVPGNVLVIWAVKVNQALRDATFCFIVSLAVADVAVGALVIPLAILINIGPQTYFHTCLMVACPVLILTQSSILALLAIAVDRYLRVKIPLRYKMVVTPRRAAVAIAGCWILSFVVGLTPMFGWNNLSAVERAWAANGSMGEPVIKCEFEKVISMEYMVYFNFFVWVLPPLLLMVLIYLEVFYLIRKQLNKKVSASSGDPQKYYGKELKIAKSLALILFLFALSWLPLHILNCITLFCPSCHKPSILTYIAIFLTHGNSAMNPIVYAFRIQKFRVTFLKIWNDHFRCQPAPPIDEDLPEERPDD
- assay name: Yeast β-Galactosidase reporter gene assay, inhibition of NECA-induced activity, strain CY12660
- measurement context: read-out: A1 Yeast IC50; Table 6, Effect of N6-Substituent
result type: IC50

The value of IC50 measured for the molecule Cc1[nH]c2nc(-c3ccccc3)nc(NC3CCC(OC(=O)c4ccccc4)CC3)c2c1C (stereo not shown) turned out to be > 10 µM

====

- experimental system: UniProtKB P30542
- assay name: Yeast β-Galactosidase reporter gene assay, inhibition of NECA-induced activity, strain CY12660
- measurement context: A1 Yeast IC50 (nM), Table 10, Effect of N6-Substituent
Each entry below lists one item and its recorded IC50 value.
Kindly provide the numeric value in nM only, without the unit symbol.

// below: answered compounds
| compound | experimental system | data value |
| --- | --- | --- |
| CC(=O)NCCCNc1nc(-c2ccccc2)nc2[nH]c(C)c(C)c12 [Compound 1010] | UniProtKB P30542 | 9380 |
| CC(=O)OCCNc1nc(-c2ccccc2)nc2[nH]c(C)c(C)c12 [Compound 1011] | UniProtKB P30542 | 2070 |

The value of IC50 measured for the compound CCC(=O)NCCNc1nc(-c2ccccc2)nc2[nH]c(C)c(C)c12 [Compound 1003] turned out to be 196

The value of IC50 measured for the compound CC(=O)C(=O)NCCNc1nc(-c2ccccc2)nc2[nH]c(C)c(C)c12 [Compound 1006] turned out to be 2920

The value of IC50 measured for the compound Cc1[nH]c2nc(-c3ccccc3)nc(NCCNC(=O)CCC(=O)O)c2c1C [Compound 1008] turned out to be 3220

The value of IC50 measured for the compound Cc1[nH]c2nc(-c3ccccc3)nc(NCCCCO)c2c1C [Compound 1016] turned out to be 5050
